Experimental system: T1, 4H94-AA
T1 chain: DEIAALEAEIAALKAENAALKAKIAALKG
Test name: two-hybrid library CCmax;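 further: natural log of median RNA to DNA barcode read ratio; higher means stronger binding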
Run parameters: mean of both orientations
Parameter: interaction score

{"columns": ["Binder", "Result value"],
 "data": [
  ["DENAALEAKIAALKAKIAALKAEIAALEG [4H1385-AA]", -0.994],
  ["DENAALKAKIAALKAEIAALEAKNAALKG [4H1864-AA]", -0.986],
  ["DEIAALKAKNAALEAEIAALKAKIAALEG [4H909-AA]", -0.983],
  ["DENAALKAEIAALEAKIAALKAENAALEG [4H1579-AA]", -1.21],
  ["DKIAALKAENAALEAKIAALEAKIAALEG [4H2725-AA]", -0.91]
]}

Cited source: paper PMC10397247
